measured_on: Dual specificity mitogen-activated protein kinase kinase 2 (Homo sapiens, UniProt P36507)
Sequence (P36507 whole entry): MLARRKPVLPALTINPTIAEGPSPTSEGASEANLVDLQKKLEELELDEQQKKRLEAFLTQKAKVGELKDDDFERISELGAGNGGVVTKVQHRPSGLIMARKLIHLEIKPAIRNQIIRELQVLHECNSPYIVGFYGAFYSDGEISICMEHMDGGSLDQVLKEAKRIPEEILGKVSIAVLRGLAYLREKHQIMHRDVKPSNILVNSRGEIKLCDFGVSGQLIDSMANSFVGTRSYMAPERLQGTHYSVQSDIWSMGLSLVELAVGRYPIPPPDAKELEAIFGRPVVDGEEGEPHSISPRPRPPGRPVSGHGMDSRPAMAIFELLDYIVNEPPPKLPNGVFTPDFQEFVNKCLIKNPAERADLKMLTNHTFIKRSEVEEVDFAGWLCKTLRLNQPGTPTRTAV
The source made the active and inactive calls.
Tick one outcome: active, inactive

Solved cases below.
                                   compound  class_label
0  C[C@H]1CNCCCN1S(=O)(=O)c1cccc2cncc(F)c12     inactive
1  NC(=O)Nc1cc(-c2cccc(F)c2)sc1C(=O)N[C@H]1CCCNC1 [AZD-7762]       active

Note: attention shifts to another entry.
Give the logged outcome of this assay for the following compound: Cc1cccc(-c2nn3c(c2-c2ccnc4ccc(C(N)=O)cc24)CCC3)n1 [GALUNISERTIB]
inactive

###

Reported Kd values for the following molecules.
measured_on: Serine/threonine-protein kinase SIK2 (Homo sapiens)
Sequence (Q9H0K1 whole entry): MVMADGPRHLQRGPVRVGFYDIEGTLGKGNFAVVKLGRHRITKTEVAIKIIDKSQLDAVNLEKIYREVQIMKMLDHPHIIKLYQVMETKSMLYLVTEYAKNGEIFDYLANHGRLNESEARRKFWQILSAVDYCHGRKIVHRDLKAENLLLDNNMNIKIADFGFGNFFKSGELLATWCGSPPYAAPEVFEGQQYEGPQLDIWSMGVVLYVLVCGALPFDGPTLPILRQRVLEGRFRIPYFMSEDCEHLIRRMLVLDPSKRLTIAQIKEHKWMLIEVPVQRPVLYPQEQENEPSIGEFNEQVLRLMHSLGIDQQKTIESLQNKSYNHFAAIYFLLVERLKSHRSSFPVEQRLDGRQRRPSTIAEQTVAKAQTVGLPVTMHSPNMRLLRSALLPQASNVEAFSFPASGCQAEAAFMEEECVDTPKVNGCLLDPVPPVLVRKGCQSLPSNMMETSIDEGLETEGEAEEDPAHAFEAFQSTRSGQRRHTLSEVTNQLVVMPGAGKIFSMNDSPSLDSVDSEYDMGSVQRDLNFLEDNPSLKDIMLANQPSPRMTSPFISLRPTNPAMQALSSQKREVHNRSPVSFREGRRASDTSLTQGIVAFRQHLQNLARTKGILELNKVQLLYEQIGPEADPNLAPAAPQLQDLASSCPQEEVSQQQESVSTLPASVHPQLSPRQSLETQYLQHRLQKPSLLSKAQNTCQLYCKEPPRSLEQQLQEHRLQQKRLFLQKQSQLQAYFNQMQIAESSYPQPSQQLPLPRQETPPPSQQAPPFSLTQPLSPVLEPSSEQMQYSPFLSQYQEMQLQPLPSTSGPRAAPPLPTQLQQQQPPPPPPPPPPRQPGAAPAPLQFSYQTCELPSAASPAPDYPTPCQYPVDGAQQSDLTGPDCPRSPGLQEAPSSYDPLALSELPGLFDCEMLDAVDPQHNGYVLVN
Active and inactive are the calls of the source.

Write Kd of C[C@H]1CNCCCN1S(=O)(=O)c1cccc2cncc(F)c12 ; system used: Serine/threonine-protein kinase SIK2 (Homo sapiens)
> 30 µM (inactive)

Give Kd; test system Serine/threonine-protein kinase SIK2 (Homo sapiens); molecule NC(=O)c1c(OCc2c(F)cc(Br)cc2F)nsc1NC(=O)NCCCCN1CCCC1 [OSI-632]
0.904 µM (active)

Print Serine/threonine-protein kinase SIK2 (Homo sapiens) Kd for CNC(=O)c1nn(C)c2c1C(C)(C)Cc1cnc(Nc3ccc(N4CCN(C)CC4)cc3)nc1-2 [MILCICLIB] .
0.11 µM (active)

Give Kd only, for NC(=O)Nc1cc(-c2cccc(F)c2)sc1C(=O)N[C@H]1CCCNC1 [AZD-7762] , using Serine/threonine-protein kinase SIK2 (Homo sapiens) data.
0.007 µM (active)

State recorded Kd with Serine/threonine-protein kinase SIK2 (Homo sapiens), entry COc1cc2c(Nc3ccc(Cl)c(Cl)c3F)ncnc2cc1OC[C@@H]1C[C@@H]2CN(C)C[C@@H]2C1 [TESEVATINIB] , no comment.
> 30 µM (inactive)

###

measured_on: Uncharacterized protein FLJ45252 (Homo sapiens, UniProt Q6ZSR9)
Sequence (Q6ZSR9 whole entry): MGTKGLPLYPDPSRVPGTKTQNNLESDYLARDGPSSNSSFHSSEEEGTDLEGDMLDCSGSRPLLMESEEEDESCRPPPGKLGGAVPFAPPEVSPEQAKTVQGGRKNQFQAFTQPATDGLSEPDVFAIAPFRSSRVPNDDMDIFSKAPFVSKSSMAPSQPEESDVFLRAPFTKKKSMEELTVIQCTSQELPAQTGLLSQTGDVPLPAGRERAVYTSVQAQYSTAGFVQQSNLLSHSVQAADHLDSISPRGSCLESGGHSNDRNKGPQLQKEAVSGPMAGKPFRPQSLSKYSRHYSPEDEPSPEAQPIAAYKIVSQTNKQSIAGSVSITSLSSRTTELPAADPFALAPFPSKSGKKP
cond: read-out: Kd apparent; k-562, colo 205, sk-n-be(2) and mv-4-11
Active and inactive are the calls of the source. No stated cut-off is given here; in the data, actives have a measured Kd and inactives only a lower limit.
Answer with one of the outcomes active, inactive

>>> df
                                   compound  class_label
0  CN1CCN(CCOc2cc(OC3CCOCC3)c3c(Nc4c(Cl)ccc5c4OCO5)ncnc3c2)CC1     inactive
1  COc1ccc(S(=O)(=O)N(C(C)=O)c2ccccc2/C=C/c2cc[n+]([O-])cc2)cc1     inactive
2  CCn1c(C(=O)N(C2CC2)C2CC2)cc2c3c(ncn3C)c(Nc3cc(C)n(C)n3)nc21     inactive
3  Cc1nc(NC(=O)N2CCC[C@H]2C(N)=O)sc1-c1ccnc(C(C)(C)C(F)(F)F)c1     inactive
4  Cn1cc(C2=C(c3cn(C4CCN(Cc5ccccn5)CC4)c4ccccc34)C(=O)NC2=O)c2ccccc21     inactive
5  COc1ncc(-c2ccc3nccc(-c4ccnnc4)c3c2)cc1NS(=O)(=O)c1ccc(F)cc1F     inactive
6  O=C1NC(=O)[C@@H](c2cn3c4c(cccc24)CCC3)[C@@H]1c1c[nH]c2ccccc12 [TIVANTINIB]     inactive
7  NC(=O)c1c(OCc2c(F)cc(Br)cc2F)nsc1NC(=O)NCCCCN1CCCC1     inactive

Field: outcome | Entry: Cc1cc(Nc2ncnc3ccc(NC4=NC(C)(C)CO4)cc23)ccc1Oc1ccn2ncnc2c1
inactive

Write down the call the test reported for this compound. Item: COc1cc2c(Nc3ccc(Cl)c(Cl)c3F)ncnc2cc1OC[C@@H]1C[C@@H]2CN(C)C[C@@H]2C1
inactive

Call for entry C[C@@H](Oc1cc(-n2cnc3ccc(CN4CCN(C)CC4)cc32)sc1C(N)=O)c1ccccc1C(F)(F)F :
inactive

Outcome? N#CC[C@H](C1CCCC1)n1cc(-c2ncnc3[nH]ccc23)cn1
active

Hi, do you know how CN1C/C=C/CCOc2cccc(c2)-c2ccnc(n2)Nc2cccc(c2)C1 came out in this test?
inactive

Hello, I am checking results. What call was entered for CNC(=O)c1ccccc1Sc1ccc2c(/C=C/c3ccccn3)n[nH]c2c1 ?
active
